Listing of entries alongside the reported log10(IC50).
# Test system: HepG2 cells
# test.description: Test Example 2: inhibition of apolipoprotein B secretion from HepG2 cells, ELISA (also used for metabolites in Test Example 8)
# Format: cell-based
# assay.context: Homo sapiens, 24 hours, apo B in supernatant by ELISA, read-out: Test Example 2 Inhibition of apo B secretion IC50
Recall that a logarithmic scale is used here: each number is log10 of IC50 in nM.

CCOC(=O)C(COC(=O)Cc1ccc(NC(=O)c2ccccc2-c2ccc(C(F)(F)F)cc2)c(C(=O)N(C)C)c1)(C(=O)OCC)C1CCCC1 [Example 2-40] :: 0.00

Lab note: next compound to report on.
Looking for the measured log10(IC50) of CCOC(=O)C(COC(=O)Cc1ccc(NC(=O)c2ccccc2-c2ccc(C(F)(F)F)cc2)c(C(=O)N(C)C)c1)(C(=O)OCC)c1ccccc1 [Example 2-5] , can you help?
-0.26

###

# target.entity: Microsomal triglyceride transfer protein (MTP) from bovine liver (Bos taurus)
# Construct: from tissue; host or cells: bovine liver
# Sequence (P55156 12-887): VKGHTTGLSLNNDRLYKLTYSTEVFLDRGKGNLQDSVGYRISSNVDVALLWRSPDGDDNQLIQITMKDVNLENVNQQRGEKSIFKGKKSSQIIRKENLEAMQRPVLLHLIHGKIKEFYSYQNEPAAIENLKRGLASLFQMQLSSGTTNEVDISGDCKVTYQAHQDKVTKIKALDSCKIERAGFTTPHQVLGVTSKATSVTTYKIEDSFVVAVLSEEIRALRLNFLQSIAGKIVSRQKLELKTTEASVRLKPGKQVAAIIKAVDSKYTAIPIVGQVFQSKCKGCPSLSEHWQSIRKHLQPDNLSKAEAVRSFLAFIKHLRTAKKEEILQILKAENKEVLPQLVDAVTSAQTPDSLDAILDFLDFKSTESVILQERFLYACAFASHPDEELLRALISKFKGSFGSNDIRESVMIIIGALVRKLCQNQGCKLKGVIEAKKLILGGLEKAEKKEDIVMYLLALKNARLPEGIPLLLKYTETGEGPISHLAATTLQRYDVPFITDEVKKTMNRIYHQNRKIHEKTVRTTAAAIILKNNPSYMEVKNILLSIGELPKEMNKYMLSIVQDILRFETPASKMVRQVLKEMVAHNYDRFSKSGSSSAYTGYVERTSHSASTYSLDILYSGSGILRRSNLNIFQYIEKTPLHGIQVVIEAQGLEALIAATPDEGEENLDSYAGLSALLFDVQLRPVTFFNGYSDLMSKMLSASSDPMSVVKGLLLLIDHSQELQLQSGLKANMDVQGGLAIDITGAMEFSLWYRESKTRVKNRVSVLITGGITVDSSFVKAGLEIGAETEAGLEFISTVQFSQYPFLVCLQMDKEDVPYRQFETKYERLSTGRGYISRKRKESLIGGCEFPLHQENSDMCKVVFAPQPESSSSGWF
# Sequence (P05307 21-510 partner): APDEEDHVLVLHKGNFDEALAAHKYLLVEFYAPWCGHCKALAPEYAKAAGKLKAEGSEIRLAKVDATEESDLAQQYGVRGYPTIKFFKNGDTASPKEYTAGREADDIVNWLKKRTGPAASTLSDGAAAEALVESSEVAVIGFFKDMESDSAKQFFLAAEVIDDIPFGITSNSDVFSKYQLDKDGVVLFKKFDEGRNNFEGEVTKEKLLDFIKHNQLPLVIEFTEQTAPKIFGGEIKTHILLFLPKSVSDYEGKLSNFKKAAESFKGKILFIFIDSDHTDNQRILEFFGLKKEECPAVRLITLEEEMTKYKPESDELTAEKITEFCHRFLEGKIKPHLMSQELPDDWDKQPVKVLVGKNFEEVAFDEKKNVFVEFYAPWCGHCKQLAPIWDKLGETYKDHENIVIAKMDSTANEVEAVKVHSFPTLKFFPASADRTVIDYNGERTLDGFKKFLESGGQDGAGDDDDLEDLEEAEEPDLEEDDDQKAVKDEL
# test.description: Test Example 1: inhibition of interliposomal triglyceride (TG) transfer activity by MTP (also used for metabolites in Test Example 8)
# Type: biochemical
# assay.context: MTP-mediated 14C-triolein transfer between liposomes, 37° C., one hour; read-out: Test Example 1 MTP inhibition IC50
measure: pIC50
Schema: pIC50 number; meaning minus log10 of the concentration expressed in molar units.

CCNC(=O)C(CCOC(=O)c1ccc(OC(=O)c2ccccc2-c2ccc(C(F)(F)F)cc2)cc1)(C(=O)NCC)c1ccccc1 [Example 6-21] :: 8.01
CCOC(=O)C(CCOC(=O)c1ccc(NC(=O)c2ccccc2-c2ccc(C(F)(F)F)cc2)c(C)c1)(C(=O)OCC)c1ccccc1 [Example 6-15] :: 8.70

Lab note: next compound to report on.
Provide value of pIC50 for this record tested with Microsomal triglyceride transfer protein (MTP) from bovine liver (Bos taurus): CCNC(=O)C(COC(=O)Cc1ccc(NC(=O)c2ccccc2-c2ccc(C(F)(F)F)cc2)c(C(=O)NC)c1)(C(=O)NCC)c1ccccc1 [Example 2-3]
8.68
